Molecular target: hGSTA1 (Homo sapiens, UniProt P08263)
Construct: purchased Novus NBP1-30307
Sequence (P08263 whole entry): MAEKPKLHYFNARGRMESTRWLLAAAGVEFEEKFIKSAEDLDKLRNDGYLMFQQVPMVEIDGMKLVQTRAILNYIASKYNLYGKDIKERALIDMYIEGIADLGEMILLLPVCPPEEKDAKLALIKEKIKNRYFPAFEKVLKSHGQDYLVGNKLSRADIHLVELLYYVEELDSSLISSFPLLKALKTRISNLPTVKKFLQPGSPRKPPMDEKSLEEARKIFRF
Test: CDO-SG biosynthesis by hGSTA1 (glutathionylation of 5,6α-EC)
Format: biochemical
Conditions: 1 and 10 mM CDNB, 1 and 10 μM HA, 1 μM 5,6β-EC, 10 μM CT, OCDO, 27-HC or 22(R)-HC (FIG. 2g-h)

| line-notation | Inhibition of CDO-SG biosynthesis |
| --- | --- |
| CC(C)CCC[C@@H](C)[C@H]1CC[C@H]2[C@@H]3C[C@@H](O)[C@@]4(O)C[C@@H](O)CC[C@]4(C)[C@H]3CC[C@]12C | potent inhibitors |
| CC(C)CCC[C@@H](C)[C@H]1CC[C@H]2[C@@H]3C[C@H]4O[C@]45C[C@@H](O)CC[C@]5(C)[C@H]3CC[C@]12C | potent inhibitors |
| CC(C)CCC[C@@H](C)[C@H]1CC[C@H]2[C@@H]3CC(=O)[C@@]4(O)C[C@@H](O)CC[C@]4(C)[C@H]3CC[C@]12C | potent inhibitors |
